Where these numbers come from: paper PMC11062899

assay: Metabolic stability in rat liver microsomes (RLMs)
cond: rat, microsomes, CL (ul/min/mg protein) R3, RLM CL; replicate R3
measured endpoint: microsomal CLint (µL/min/mg)
A number alone suffices; assume µL/min/mg.

Recorded microsomal CLint, per entry:
>  <compound>
C[C@@H]1NC(=O)[C@@H](NC(=O)c2ccc(Cl)s2)CSCc2cccc(n2)CSCCNC(=O)c2ccc(cc2)CNC1=O [compound 26]

>  <result unit>
µL/min/mg

>  <recorded value>
129

$$$$
>  <compound>
C[C@@H]1NC(=O)[C@@H](NC(=O)c2ccc(Cl)s2)CNC(=O)CCSCc2cccc(n2)CSCCNC1=O [compound 18]

>  <result unit>
µL/min/mg

>  <recorded value>
95.7

$$$$
>  <compound>
O=C1CC2CCN(CC2)C(=O)[C@H](Cc2ccccc2)NC(=O)[C@@H](NC(=O)c2ccc(Cl)s2)CSCc2cccc(n2)CSCCN1 [compound 15]

>  <result unit>
µL/min/mg

>  <recorded value>
81.9

$$$$
>  <compound>
CC(C)[C@@H]1NC(=O)[C@@H](NC(=O)c2ccc(Cl)s2)CNC(=O)CCSCc2cccc(n2)CSCCNC1=O [compound 19]

>  <result unit>
µL/min/mg

>  <recorded value>
68.3

$$$$
>  <compound>
CN1CCC(=O)NCCSCCS(=O)(=O)CCSC[C@H](NC(=O)c2ccc(Cl)s2)C(=O)N[C@@H](Cc2ccccc2)C1=O [compound 14]

>  <result unit>
µL/min/mg

>  <recorded value>
141

$$$$

Asked: Entry under review: O=C1NCCSCc2cccc(n2)CSC[C@H](NC(=O)c2ccc(Cl)s2)C(=O)N[C@@H](CO)C(=O)NCc2cccc1c2 [compound 27] . Reported microsomal CLint?
Given back: 60.2

Asked: Item under review: O=C1C[C@H]2CCCN2C(=O)[C@H](Cc2ccccn2)NC(=O)[C@@H](NC(=O)c2ccc(Cl)s2)CSCCS(=O)(=O)CCSCCN1 [compound 12] . Reported microsomal CLint?
Given back: 72.9

Asked: Fill blank: measured microsomal CLint of the compound NC(=O)NCCC[C@@H]1NC(=O)[C@@H](NC(=O)c2ccc(Cl)s2)CNC(=O)CCSCc2cccc(n2)CSCCNC1=O [compound 20] is ____.
Given back: 26.2
